The following compounds are shown together with reported CC50 at 4 days values.
measurement_protocol: Compound cytotoxicity, XTT-based colorimetric assay
Format: cell-based
experimental_setup: human, uninfected MT2 cells, day 4, XTT
Number only, in µM; omit the unit.

[[record]]
molecular_string = "CN(C(=O)[C@H](Cc1cc(F)cc(F)c1)NC(=O)c1cncc(C(=O)N[C@@H](Cc2cc(F)cc(F)c2)C(=O)N(C)c2ccc3scnc3c2)c1)c1ccc2scnc2c1"
value_unit = "µM"
experimental_value = 5.3


Next item in the queue.
Query: Could you share which CC50 at 4 days value was measured for `COc1ccc(N(C)C(=O)[C@H](Cc2ccccc2)NC(=O)CS(=O)(=O)N[C@@H](Cc2ccccc2)C(=O)N(C)c2ccc(OC)cc2)cc1` ?
Result: 30.2

Hello, the source for this data is patent US20180072997A1, in case you need it.
